Origin of measurements: patent US20180142000A1

- target.under.test: C. jejuni (strain 81-176) flagella (Campylobacter jejuni strain 81-176)
- experiment.summary: SPR (Biacore 3000), single-cycle kinetics, […]
pKd: −log10 of the molar value.
binders and their reported pKd

binder	pKd
FlagV1M (VHH) VHH: QVKLEESGGGLVQAGGSRRLSCATSGLTFRNFHMAWFRQVAGKEREVVAAISWSRDRQYYPDPVKGRFTITRDNAKNTVYLQMNSLKPEDTAVYYCAARTASASGDWYKGSYQYWGQGTQVTVSS	7.62
FlagV1F23M (VHH) VHH: QVQLVESGGGLVQAGGSRRLSCATSGLTFRNFHMAWFRQVAGKEREVVAAISWSRDRQYYPDPVKGRFTITRDNAKNTVYLQMNSLKPEDTAVYYCAARTASASGDWYKGSYQYWGQGTQVTVSS	7.73
FlagV1F23MDSB (VHH) VHH: QVQLVESGGGLVQAGGSRRLSCATSGLTFRNFHMAWFRQVAGKEREVVCAISWSRDRQYYPDPVKGRFTCTRDNAKNTVYLQMNSLKPEDTAVYYCAARTASASGDWYKGSYQYWGQGTQVTVSS	7.76
FlagV1MDSB (VHH) VHH: QVKLEESGGGLVQAGGSRRLSCATSGLTFRNFHMAWFRQVAGKEREVVCAISWSRDRQYYPDPVKGRFTCTRDNAKNTVYLQMNSLKPEDTAVYYCAARTASASGDWYKGSYQYWGQGTQVTVSS	7.74
